- assay comment: PhoP regulon inhibitors, Salmonella typhi PhoP promoter GFP reporter, confirmatory (AID 1850);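 further: 0% = induced wells with vehicle and 100% = uninduced wells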
- condition summary: fluorescence, 4 h, at 50 µM, stronger effect = higher value
Screen size: about 310,000 compounds; about 1,000 (0.32%) were called active. The list is a sample of the results. Entries with a potency or affinity are not part of this list.
recorded endpoint: inhibition

// known answers, use as guide
Clc1ccc(COC(Cn2ccnc2)c2ccc(Cl)cc2Cl)cc1 (configuration not stated)
-0.54% (inactive)
Nc1c(Cl)ncnc1N/N=C/c1ccncc1
5.13% (inactive)
Cc1cc(C)c2cc(C(=O)N3CCC(C(=O)c4ccc(F)cc4)CC3)[nH]c2c1
2.06% (inactive)

Parameter requested: inhibition. Apply to each item below.
1. N/C(CC(=O)Nc1ccc(F)c(Cl)c1)=N\OC(=O)c1cccs1
2. N#Cc1c(-c2ccccc2)cc(-c2ccc(O)cc2)nc1N
3. C=CCNC(=S)NNC(=O)c1ccc(OCCC)cc1
4. COc1ccc(CSc2nnc(Cc3sc(-c4ccccc4)nc3-c3ccccc3)o2)cc1
5. CN1CCC(OC(=O)c2cccc(Cl)c2)CC1

Result block:
1. -6.75% (inactive)
2. -7.46% (inactive)
3. 0.33% (inactive)
4. 7.93% (inactive)
5. 4.43% (inactive)

Parameter requested: inhibition. Apply to each item below.
1. CCN1CCN(C(c2ccc(C(F)(F)F)cc2)c2ccc3cccnc3c2O)CC1 (configuration not stated)
2. CN(C)S(=O)(=O)c1ccc(S(=O)(=O)N(CC(=O)Nc2ccccc2)CC2CCCO2)cc1 (configuration not stated)
3. Cc1cccc(C)c1NC(=O)C[N+](C)(C)CC(O)COc1cccc2ccccc12 (configuration not stated)
4. CC1(C)OC(=O)C(=CNc2ncccn2)C(=O)O1
5. CCOC(=O)CSc1nnc2n1C(C)(C)Cc1ccccc1-2
6. Nc1c(Cl)ncnc1N/N=C/c1ccc2ccccc2n1
7. CC(C)CNC(=O)COC(=O)c1ccc(Cl)c(S(=O)(=O)N2CCc3ccccc32)c1

Result block:
["-8.31% (inactive)", "9.84% (inactive)", "-1.2% (inactive)", "-4.83% (inactive)", "11.2% (inactive)", "8.37% (inactive)", "1.54% (inactive)"]

Parameter requested: inhibition. Apply to each item below.
1. CC(C)CN(Cc1cc(=O)oc2cc3c(cc12)CCCC3)CC(C)C
2. O=C(O)c1ccc2c(c1)N(Cc1ccccc1)C(=O)c1ccccc1S2=O (configuration not stated)

Result block:
3.63% (inactive)
-5.21% (inactive)

Parameter requested: inhibition. Apply to each item below.
1. CN1CCN(C(c2ccccn2)c2cc(Cl)c3cccnc3c2O)CC1 (configuration not stated)
2. Cc1nn(C(C)C(=O)NC2CCC(C)CC2)c(=O)c2nn(-c3ccccc3)c(C)c12 (configuration not stated)
3. Cc1cccc2cc(CN(CCCO)C(=O)Nc3cccc(Cl)c3)c(=O)[nH]c12
4. CCn1c(=S)sc2c(=O)n(CC(=O)Nc3ccc(Cl)cc3)c(C)nc21
5. O=C(NC1CCCC1)c1ccc(Cl)s1
6. CCOC(=O)N1CCN(C(=O)c2cn(CC)c3ccc(S(=O)(=O)N4CC(C)CC(C)C4)cc3c2=O)CC1 (configuration not stated)
7. CCc1cc(C(=O)Nc2ccc(OC)nc2)sc1C

Result block:
1. -16.9% (inactive)
2. -5.27% (inactive)
3. -2.46% (inactive)
4. 1.24% (inactive)
5. -8.57% (inactive)
6. -8.02% (inactive)
7. 4.89% (inactive)

Parameter requested: inhibition. Apply to each item below.
1. O=C(NNC(=O)c1ccc(Br)s1)NC1CCCCC1
2. CC(=O)c1ccc(NC(=S)NCc2ccc(Cl)cc2Cl)cc1
3. O=C(COc1ncnc2ccccc12)NCC1CCCO1 (configuration not stated)
4. CC(=O)c1cc(C(=O)NC2CCCc3c2cnn3-c2cc(C)cc(C)c2)[nH]n1 (configuration not stated)
5. COc1cc(Cl)c(C)cc1NC(=O)CCCN1C(=O)CCC1=O
6. CCc1sc(C(=O)Nc2cccnc2)cc1Br
7. Cc1ccc(-c2cc(C(F)F)nc(NCC3CCCO3)n2)cc1 (configuration not stated)
8. CCCCCCCC(=O)Nc1ccc(S(=O)(=O)Nc2nccs2)cc1

Result block:
1: -2.75% (inactive); 2: -6.96% (inactive); 3: 7.4% (inactive); 4: -9.06% (inactive); 5: -6.87% (inactive); 6: -8.13% (inactive); 7: -6.89% (inactive); 8: -7.23% (inactive)

Parameter requested: inhibition. Apply to each item below.
1. O=C(Nc1cccnc1)c1ccc(Br)s1
2. OCCN1CCN(CC(O)COC(c2ccc(F)cc2)c2ccc(F)cc2)CC1 (configuration not stated)
3. Cc1cc(C)c(NC(=O)COc2nncc3ccccc23)c(C)c1
4. CC(=O)Nc1ccc2c(c1)nc1n2CCSC1
5. CCCC(CCC)C(=O)Nc1ccc2c(c1)N(C(=O)CN1CCN(C)CC1)c1ccccc1CC2

Result block:
1. 12.6% (inactive)
2. -5.69% (inactive)
3. -9.5% (inactive)
4. 11.9% (inactive)
5. 5.91% (inactive)

This collection of values is drawn from PubChem BioAssay AID1850.
